Read-out: Interleukin 6 Receptor (IL6R), IL6R (gene 3570)
Experiment: LTEA_HepaRG_IL6R: Life Technologies and Expression Analysis (LTEA) Assay for Interleukin 6 Receptor (IL6R) using HepaRG (AID 2283510)
Conditions: mRNA level, 48 h; actives raise or lower the signal
Active and inactive are the calls of the source. The calls were made as follows: active = hit-call score of the fitted dose curve at least 0.9, where 1 is the maximum; inactive = score below 0.9.
Possible outcomes: yes = active, no = inactive

compound	class.name
Cc1c2ccccc2c(C)c2c1ccc1ccccc12	yes
CCCCOC(=O)CC(CC(=O)OCCCC)(OC(C)=O)C(=O)OCCCC	no
CCOC(=O)O[C@H](C)OC(=O)c1ccc2c(c1)cc(C(=O)NC1CCN(C(C)C)CC1)n2Cc1cc(-c2ccc(Cl)s2)on1	no
C[C@]12CC[C@@H]3c4ccc(O)cc4CC[C@H]3[C@@H]1CCC2=O	no
CCN(Cc1cccc(S(=O)(=O)O)c1)c1ccc(C(=C2C=CC(=[N+](CC)Cc3cccc(S(=O)(=O)O)c3)C=C2)c2ccccc2S(=O)(=O)[O-])cc1	no
CCCCCCCCOC(=O)c1cc(O)c(O)c(O)c1	no
CO[C@H]1/C=C/O[C@@]2(C)Oc3c(C)c(O)c4c(O)c(c(/C=N/N5CCN(C)CC5)c(O)c4c3C2=O)NC(=O)/C(C)=C\C=C\[C@H](C)[C@H](O)[C@@H](C)[C@@H](O)[C@@H](C)[C@H](OC(C)=O)[C@@H]1C	no
CCCCCCCCCCCCO	no
OC12N=C(c3ccccc3)SC1Cc1cc(Cl)ccc12 (stereo unspecified)	yes
CN(C)c1ccc(C(=C2C=CC(=[N+](C)C)C=C2)c2ccc(N(C)C)cc2)cc1	yes
CCCC(=O)OCCC(C)C	no
Oc1ccccc1	no
COc1cc(C(=O)NC2CCN(C)CC2)ccc1Nc1ncc2c(n1)N(C1CCCC1)CC(F)(F)C(=O)N2C	yes
CC(C)(c1cc(Br)c(O)c(Br)c1)c1cc(Br)c(O)c(Br)c1	no
CN1C(=O)N(c2ccccc2Br)Cc2cnc(Nc3ccc4c(c3)OCC(CO)O4)nc21 (stereo unspecified)	no
CC1=CC(=O)/C(=C(/C)O)C(=O)O1	no
CC1(C)NC(=O)N(c2ccc([N+](=O)[O-])c(C(F)(F)F)c2)C1=O	no
CC(O)CC(C)(C)O (stereo unspecified)	no
Cc1oc2c(NC(=O)c3c(Cl)cccc3Cl)cccc2c1C(C)(C)O	yes
O=C1CCC(C2CCCCC2)CC1	no
CC/C(=C(/CC)c1ccc(O)cc1)c1ccc(O)cc1	yes

###

Read-out: Interferon-gamma inducible Protein 10 (IP10), CXCL10 (gene 3627)
Test: BSK_BE3C_IP10: BioMAP Diversity Plus: BE3C Assay for Interferon-gamma inducible Protein 10 (IP10) Biomarker Activity (AID 2283034)
Conditions: primary human bronchial epithelial cells; actives raise or lower the signal
Activity calls are given as the source filed them. The calls were made as follows: active = hit-call score of the fitted dose curve at least 0.9, where 1 is the maximum; inactive = score below 0.9.
Possible outcomes: active, inactive

mol.smiles	class.name
CC(=O)N1CCN(c2ccc(OC[C@H]3CO[C@](Cn4ccnc4)(c4ccc(Cl)cc4Cl)O3)cc2)CC1	active
OCCO	inactive
Cc1cccc2ccccc12	inactive
O=c1c(-c2ccc(O)cc2)coc2cc(O)cc(O)c12	inactive
CCCCCCCCCC(=O)O	inactive
CCO[Si](CCCNC(N)=O)(OCC)OCC	inactive
CO[C@H]1/C=C/O[C@@]2(C)Oc3c(C)c(O)c4c(O)c(c(/C=N/N5CCN(C)CC5)c(O)c4c3C2=O)NC(=O)/C(C)=C\C=C\[C@H](C)[C@H](O)[C@@H](C)[C@@H](O)[C@@H](C)[C@H](OC(C)=O)[C@@H]1C	inactive
Oc1ccccc1	inactive
CC[C@H](NC(=O)c1cc(F)ccc1NS(=O)(=O)c1cccc2cccnc12)c1ccccc1	inactive
O=C1O[C@H]([C@@H](O)CO)C(O)=C1O	inactive
Cc1ccc2oc(CN(Cc3ccccc3)C(=O)Nc3c(F)cc(F)cc3F)c(-c3ccc(Cl)cc3)c2c1	inactive
CCCC(=O)OCCC(C)C	inactive
O=C(O)Cc1cc(I)c(Oc2ccc(O)c(I)c2)c(I)c1	active
c1ccc2ccccc2c1	inactive
